- tgt: BRAFV600E full-length (amino acids 2-766) (Homo sapiens, UniProt P15056, V600E)
- Construct: His6-tagged BRAFV600E full-length (amino acids 2-766); His6; made in house; host or cells: baculovirus expression system (insect cells)
- Sequence (P15056 2-766 V600E): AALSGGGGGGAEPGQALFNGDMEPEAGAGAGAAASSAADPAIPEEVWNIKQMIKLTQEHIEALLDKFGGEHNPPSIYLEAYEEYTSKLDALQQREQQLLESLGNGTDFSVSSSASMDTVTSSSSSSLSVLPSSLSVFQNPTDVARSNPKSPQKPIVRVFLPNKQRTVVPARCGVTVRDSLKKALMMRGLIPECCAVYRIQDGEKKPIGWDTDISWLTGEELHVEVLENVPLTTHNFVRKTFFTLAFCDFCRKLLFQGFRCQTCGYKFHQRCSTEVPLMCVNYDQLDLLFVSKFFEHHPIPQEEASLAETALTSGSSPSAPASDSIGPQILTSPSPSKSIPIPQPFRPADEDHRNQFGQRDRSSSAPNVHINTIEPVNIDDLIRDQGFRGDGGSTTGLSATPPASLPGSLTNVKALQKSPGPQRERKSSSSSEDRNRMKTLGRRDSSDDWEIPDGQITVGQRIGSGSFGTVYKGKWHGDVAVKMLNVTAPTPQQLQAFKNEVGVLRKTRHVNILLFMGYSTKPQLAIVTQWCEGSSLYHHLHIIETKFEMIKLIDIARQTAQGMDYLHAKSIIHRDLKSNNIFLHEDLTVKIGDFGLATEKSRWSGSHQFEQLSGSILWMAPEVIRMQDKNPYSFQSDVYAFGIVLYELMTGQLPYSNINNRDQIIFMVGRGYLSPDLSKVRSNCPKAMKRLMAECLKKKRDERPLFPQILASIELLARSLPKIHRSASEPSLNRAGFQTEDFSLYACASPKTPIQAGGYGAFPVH
- measurementDescription: B-Raf Accelerated MEK ATPase assay (BRAMA)
- Type: biochemical
- testSettings: B-Raf pIC50, Table 1b; later runs, average pIC50 for the one or more runs, categorized
pIC50: −log10 of the molar value.
quantityKind: pIC50

INSERT INTO assay_data (smilesdata, tgt, quantitykind, measuredresult) VALUES
  ('Nc1nccc(-c2sc(C3CCOCC3)nc2-c2cccc(NS(=O)(=O)c3c(F)cccc3F)c2Cl)n1', 'BRAFV600E full-length (amino acids 2-766) (Homo sapiens, UniProt P15056, V600E)', 'pIC50', '≥ 8.50'),
  ('Nc1nccc(-c2sc(N3CCOCC3)nc2-c2cccc(NS(=O)(=O)C3CCCCC3)c2F)n1', 'BRAFV600E full-length (amino acids 2-766) (Homo sapiens, UniProt P15056, V600E)', 'pIC50', '6.00 to 7.50'),
  ('CC(C)CNc1nccc(-c2sc(C3CCOCC3)nc2-c2cccc(NS(=O)(=O)c3ccoc3)c2F)n1', 'BRAFV600E full-length (amino acids 2-766) (Homo sapiens, UniProt P15056, V600E)', 'pIC50', '≥ 8.50'),
  ('CC(C)(C)c1nc(-c2cccc(NS(=O)(=O)c3cccs3)c2F)c(-c2ccnc(N)n2)s1', 'BRAFV600E full-length (amino acids 2-766) (Homo sapiens, UniProt P15056, V600E)', 'pIC50', '≥ 8.50'),
  ('CC(C)CNc1nccc(-c2sc(N3CCOCC3)nc2-c2cccc(NS(=O)(=O)c3cc(F)ccc3F)c2F)n1', 'BRAFV600E full-length (amino acids 2-766) (Homo sapiens, UniProt P15056, V600E)', 'pIC50', '≥ 8.50'),
  ('CC(C)c1nc(-c2ccc(F)c(NS(=O)(=O)c3cc(F)ccc3F)c2)c(-c2ccnc(NCCN3CCCCC3)n2)s1', 'BRAFV600E full-length (amino acids 2-766) (Homo sapiens, UniProt P15056, V600E)', 'pIC50', '6.00 to 7.50'),
  ('Cc1ccc(F)c(S(=O)(=O)Nc2cccc(-c3nc(C(C)(C)C)sc3-c3ccnc(N)n3)c2F)c1', 'BRAFV600E full-length (amino acids 2-766) (Homo sapiens, UniProt P15056, V600E)', 'pIC50', '6.00 to 7.50');

---

- tgt: BRAFV600E full-length (amino acids 2-766) (Homo sapiens, UniProt P15056, V600E)
- Construct: His6-tagged BRAFV600E full-length (amino acids 2-766); His6; made in house; host or cells: baculovirus expression system (insect cells)
- measurementDescription: B-Raf Accelerated MEK ATPase assay (BRAMA)
- Format: biochemical
- testSettings: B-Raf Activity, Table 1a; highest pIC50 for the one or more runs, categorized
Counter-ions that a name gives are not always drawn.
Quick list: IC50 per entry.
quantityKind: IC50

INSERT INTO measurements (compound, quantitykind, measuredresult) VALUES
  ('CN(C)c1nc(-c2cccc(NS(=O)(=O)c3c(F)cccc3F)c2)c(-c2ccnc(N)n2)s1', 'IC50', '100 to 1000 nM'),
  ('CC(C)c1nc(-c2ccc(F)c(NS(=O)(=O)c3cc(F)ccc3F)c2)c(-c2ccnc(NC3CCN(CCS(C)(=O)=O)CC3)n2)s1', 'IC50', '< 100 nM'),
  ('CC(C)c1nc(-c2cccc(NS(=O)(=O)c3cnn(C)c3)c2)c(-c2ccnc(NCCS(C)(=O)=O)n2)s1 [Example 35, trifluoroacetic acid salt]', 'IC50', '< 100 nM'),
  ('Nc1nccc(-c2sc(N3CCOCC3)nc2-c2cccc(NS(=O)(=O)C3CCCCC3)c2F)n1', 'IC50', '100 to 1000 nM'),
  ('Nc1nccc(-c2sc(C3CCOC3)nc2-c2cccc(NS(=O)(=O)c3c(F)cccc3F)c2F)n1 (stereo not shown)', 'IC50', '< 100 nM'),
  ('CC(C)(C)c1nc(-c2cccc(NS(=O)(=O)c3cc(F)ccc3F)c2F)c(-c2ccnc(NCCNS(C)(=O)=O)n2)s1', 'IC50', '< 100 nM'),
  ('CC(C)(C)OC(=O)NCCNc1nccc(-c2sc(C(C)(C)C)nc2-c2cccc(NS(=O)(=O)c3cc(F)ccc3F)c2F)n1', 'IC50', '< 100 nM');

---

- tgt: BRAFV600E full-length (amino acids 2-766) (Homo sapiens, UniProt P15056, V600E)
- Construct: His6-tagged BRAFV600E full-length (amino acids 2-766); His6; made in house; host or cells: baculovirus expression system (insect cells)
- measurementDescription: B-Raf Accelerated MEK ATPase assay (BRAMA)
- Assay type: biochemical
pIC50: −log10 of the molar value.
Quick list: pIC50 per entry.
quantityKind: pIC50

INSERT INTO assay_data (smilesdata, measuredresult) VALUES
  ('Nc1nccc(-c2sc(N3CCOCC3)nc2-c2cccc(NS(=O)(=O)C3CC3)c2F)n1', '< 6.00'),
  ('CS(=O)(=O)N1CCC(Nc2nccc(-c3sc(N4CCOCC4)nc3-c3cccc(NS(=O)(=O)c4cc(F)ccc4F)c3F)n2)CC1', '> 7.00'),
  ('CC(C)c1nc(-c2ccc(F)c(NS(=O)(=O)c3c(F)cccc3F)c2)c(-c2ccnc(NCCCN(C)C)n2)s1', '< 6.00'),
  ('CC(C)c1nc(-c2ccc(F)c(NS(=O)(=O)c3c(F)cccc3F)c2)c(-c2ccnc(NCCN3CCCC3)n2)s1', '< 6.00');

---

- tgt: BRAFV600E full-length (amino acids 2-766) (Homo sapiens, UniProt P15056, V600E)
- Construct: His6-tagged BRAFV600E full-length (amino acids 2-766); His6; made in house; host or cells: baculovirus expression system (insect cells)
- measurementDescription: B-Raf Accelerated MEK ATPase assay (BRAMA)
- Assay type: biochemical
- testSettings: Table 1b; later runs, average pIC50 for the one or more runs, categorized; read-out: B-Raf pIC50 (converted)
Quick list: IC50 per entry.
quantityKind: IC50

INSERT INTO results (smilesdata, measuredresult) VALUES
  ('CS(=O)(=O)N1CCC(Nc2nccc(-c3sc(C4CCOCC4)nc3-c3ccc(F)c(NS(=O)(=O)c4cc(F)ccc4F)c3)n2)CC1', '3.16 to 31.6 nM'),
  ('C[C@@H]1CN(c2nc(-c3cccc(NS(=O)(=O)c4c(F)cccc4F)c3F)c(-c3ccnc(N)n3)s2)C[C@H](C)O1', '3.16 to 31.6 nM'),
  ('CC(C)(C)c1nc(-c2cccc(NS(=O)(=O)c3cc(F)ccc3F)c2F)c(-c2ccnc(CCN3CCOCC3)n2)s1', '3.16 to 31.6 nM'),
  ('CC(C)c1nc(-c2ccc(F)c(NS(=O)(=O)c3cc(F)ccc3F)c2)c(-c2ccnc(NC3CCS(=O)(=O)CC3)n2)s1', '3.16 to 31.6 nM'),
  ('C=Cc1nccc(-c2sc(N3CCOCC3)nc2-c2cccc(NS(=O)(=O)c3cc(F)ccc3F)c2F)n1', '3.16 to 31.6 nM'),
  ('Nc1nccc(-c2sc(N3CCS(=O)(=O)CC3)nc2-c2cccc(NS(=O)(=O)c3c(F)cccc3F)c2F)n1', '3.16 to 31.6 nM'),
  ('CC(C)CNc1nccc(-c2sc(C(C)(C)C)nc2-c2cccc(NS(=O)(=O)c3c(F)cccc3F)c2F)n1', '3.16 to 31.6 nM');

---

Quick list: pIC50 per entry.
- tgt: BRAFV600E full-length (amino acids 2-766) (Homo sapiens, UniProt P15056, V600E)
- Construct: His6-tagged BRAFV600E full-length (amino acids 2-766); His6; made in house; host or cells: baculovirus expression system (insect cells)
- measurementDescription: B-Raf Accelerated MEK ATPase assay (BRAMA)
- Format: biochemical
- testSettings: B-Raf Activity, Table 1a; highest pIC50 for the one or more runs, categorized
pIC50: −log10 of the molar value.
quantityKind: pIC50

INSERT INTO results (compound, tgt, quantitykind, measuredresult) VALUES
  ('CNc1nccc(-c2sc(C(C)C)nc2-c2cccc(NS(=O)(=O)c3cccc(F)c3)c2)n1 [Example 86]', 'BRAFV600E full-length (amino acids 2-766) (Homo sapiens, UniProt P15056, V600E)', 'pIC50', '> 7.00'),
  ('O=S(=O)(Nc1cccc(-c2nc(N3CCOCC3)sc2-c2ccnc(NCCO)n2)c1F)c1cc(F)ccc1F [Example 208]', 'BRAFV600E full-length (amino acids 2-766) (Homo sapiens, UniProt P15056, V600E)', 'pIC50', '> 7.00'),
  ('CC(C)CNc1nccc(-c2sc(C(C)(C)C)nc2-c2cccc(NS(=O)(=O)c3cc(F)ccc3F)c2F)n1 [Example 92]', 'BRAFV600E full-length (amino acids 2-766) (Homo sapiens, UniProt P15056, V600E)', 'pIC50', '> 7.00'),
  ('CS(=O)(=O)CCNc1nccc(-c2sc(N3CCCC3)nc2-c2cccc(NS(=O)(=O)c3c(F)cccc3F)c2)n1 [Example 32]', 'BRAFV600E full-length (amino acids 2-766) (Homo sapiens, UniProt P15056, V600E)', 'pIC50', '> 7.00'),
  ('CC(C)(C)c1nc(-c2cccc(NS(=O)(=O)c3cc(F)ccc3F)c2F)c(-c2ccnc(CCS(C)(=O)=O)n2)s1 [Example 214]', 'BRAFV600E full-length (amino acids 2-766) (Homo sapiens, UniProt P15056, V600E)', 'pIC50', '> 7.00'),
  ('CCCNc1nccc(-c2sc(C(C)C)nc2-c2ccc(F)c(NS(=O)(=O)c3cc(F)ccc3F)c2)n1 [Example 120]', 'BRAFV600E full-length (amino acids 2-766) (Homo sapiens, UniProt P15056, V600E)', 'pIC50', '> 7.00'),
  ('CC(C)CNc1nccc(-c2sc(C(C)C)nc2-c2cccc(NS(=O)(=O)c3c(F)cccc3F)c2F)n1 [Example 176]', 'BRAFV600E full-length (amino acids 2-766) (Homo sapiens, UniProt P15056, V600E)', 'pIC50', '> 7.00'),
  ('CC(C)c1nc(-c2ccc(F)c(NS(=O)(=O)c3cc(F)ccc3F)c2)c(-c2ccnc(NC3CCS(=O)(=O)CC3)n2)s1 [Example 205]', 'BRAFV600E full-length (amino acids 2-766) (Homo sapiens, UniProt P15056, V600E)', 'pIC50', '> 7.00'),
  ('CC(C)c1nc(-c2cccc(NS(=O)(=O)C3CC3)c2)c(-c2ccnc(NCCS(C)(=O)=O)n2)s1 [Example 52]', 'BRAFV600E full-length (amino acids 2-766) (Homo sapiens, UniProt P15056, V600E)', 'pIC50', '6.00 to 7.00'),
  ('CC(C)(C)c1nc(-c2cccc(NS(=O)(=O)c3cc(F)ccc3F)c2F)c(-c2ccnc(NCCF)n2)s1 [Example 179]', 'BRAFV600E full-length (amino acids 2-766) (Homo sapiens, UniProt P15056, V600E)', 'pIC50', '> 7.00'),
  ('CC(C)CNc1nccc(-c2scnc2-c2cccc(NS(=O)(=O)c3c(F)cccc3F)c2)n1 [Example 115]', 'BRAFV600E full-length (amino acids 2-766) (Homo sapiens, UniProt P15056, V600E)', 'pIC50', '< 6.00'),
  ('CC(=O)N1CCC(Nc2nccc(-c3sc(C(C)C)nc3-c3ccc(F)c(NS(=O)(=O)c4cc(F)ccc4F)c3)n2)CC1 [Example 77]', 'BRAFV600E full-length (amino acids 2-766) (Homo sapiens, UniProt P15056, V600E)', 'pIC50', '> 7.00'),
  ('Nc1nccc(-c2sc(N3CCOCC3)nc2-c2cccc(NS(=O)(=O)N3CCOCC3)c2F)n1 [Example 50]', 'BRAFV600E full-length (amino acids 2-766) (Homo sapiens, UniProt P15056, V600E)', 'pIC50', '6.00 to 7.00');

Data origin: patent US7994185B2
